So I've got a bunch of variants here, and I need their yeast fitness values.
B1: tRNA (parent)
chain: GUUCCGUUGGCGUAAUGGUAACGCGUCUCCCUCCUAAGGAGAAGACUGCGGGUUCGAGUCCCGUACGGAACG

- Variants of: B1
- assay: yeast fitness relative to wild type (ratio to wild type); higher = fitter; tRNA-Arg(CCU), competitive growth, 37 C, YPD
Variants at the floor of the assay were thinned out.
Just the number, please.

[ask] Data request, read-out yeast fitness, for C4U G23C A36C
[reply] 0.597

[ask] yeast fitness lookup needed for G12C U53A , thanks.
[reply] 0.594

[ask] Given the entry A14U A21U G67C , report its measured yeast fitness.
[reply] 0.596

[ask] So what does the record say about yeast fitness for A20C C24U C49U ?
[reply] 0.602

[ask] Fill blank: measured yeast fitness of the variant U19A G48A G68C is ____.
[reply] 0.626

[ask] Entry under review: U19A C34G A43C . Reported yeast fitness?
[reply] 0.534

[ask] Look up yeast fitness for this variant: C4G C61A G67A
[reply] 0.553

Just for reference, the RNAGym collection of RNA variant scans (doi:10.1126/science.aae0568) is where these values come from.
